- Tested on: Staphylococcus aureus
- protocol description: Antibacterial activity against Staphylococcus aureus NCIM-2901 by standard agar method
- Assay type: functional
Could you please report measured MIC for the items listed next?
The reply should read as a number followed by its unit.

*Q* Return the recorded MIC value; entry: Cc1ccc2cc(C3C4=C(CC(C)(C)CC4=O)n4c(=O)c5ccccc5c(=O)n43)c(Cl)nc2c1 (stereo not drawn)
*A* 70 µg/mL

*Q* Return the recorded MIC value; entry: COc1ccc2cc(C3C4=C(CC(C)(C)CC4=O)n4c(=O)c5ccccc5c(=O)n43)c(Cl)nc2c1 (stereo not drawn)
*A* 102 µg/mL

*Q* Return the recorded MIC value; entry: CC1(C)CC(=O)C2=C(C1)n1c(=O)c3ccccc3c(=O)n1C2c1cc2ccccc2n2nnnc12 (stereo not drawn)
*A* 85 µg/mL

*Q* Return the recorded MIC value; entry: COc1ccc2nc(Cl)c(C3C4=C(CC(C)(C)CC4=O)n4c(=O)c5ccccc5c(=O)n43)cc2c1 (stereo not drawn)
*A* 77.5 µg/mL

*Q* Return the recorded MIC value; entry: Cc1ccc2cc(C3C4=C(CC(C)(C)CC4=O)n4c(=O)c5ccccc5c(=O)n43)c3nnnn3c2c1 (stereo not drawn)
*A* 112 µg/mL

*Q* Return the recorded MIC value; entry: CC1(C)CC(=O)C2=C(C1)n1c(=O)c3ccccc3c(=O)n1C2c1cc2ccccc2nc1Cl (stereo not drawn)
*A* 178 µg/mL

*Q* Return the recorded MIC value; entry: Cc1cccc2cc(C3C4=C(CC(C)(C)CC4=O)n4c(=O)c5ccccc5c(=O)n43)c(Cl)nc12 (stereo not drawn)
*A* 67.5 µg/mL

*Q* Return the recorded MIC value; entry: Cc1ccc2nc(Cl)c(C3C4=C(CC(C)(C)CC4=O)n4c(=O)c5ccccc5c(=O)n43)cc2c1 (stereo not drawn)
*A* 77.5 µg/mL
